Cited source: ChEMBL document CHEMBL6121063

- test protocol: Oral bioavailability in Sprague-Dawley rat at 25 mg/kg measured after 12 hrs by LC-MS/MS analysis
- Assay type: ADME, organism-based
- measurement parameters: in vivo
property label: bioavailability (%)
Form entry: value (%) — number only.

For the molecule shown here, O=C1CCC(Nc2cccc(N3CCN(CC4CCN(CC(=O)N5CCC(NC(=O)c6n[nH]cc6NC(=O)c6c(Cl)cccc6Cl)CC5)CC4)CC3)c2)C(=O)N1 (stereo unspecified) , give the reported bioavailability.
6.5

----------
- Test system: NCI-H446
- test protocol: Antiproliferative activity against human NCI-H446 cells assessed as inhibition of cell growth incubated for 72 hrs by CCK8 assay
- Type: functional, cell-based
- measurement parameters: NCI-H446, 72 h
pIC50: −log10 of the molar value.
Short version: pIC50 at least 7 is Yes, less is No.

Determine whether this compound has pIC50 no lower than 7: O=C1CCC(N2C(=O)c3cccc(NCCCCCC(=O)N4CCC(NC(=O)c5n[nH]cc5NC(=O)c5c(Cl)cccc5Cl)CC4)c3C2=O)C(=O)N1 (centres undefined)
No

Determine whether this compound has pIC50 no lower than 7: O=C1CCC(Nc2ccc(N3CCN(CC4CCN(CC(=O)N5CCC(NC(=O)c6n[nH]cc6NC(=O)c6c(Cl)cccc6Cl)CC5)CC4)CC3)c(F)c2)C(=O)N1 (centres undefined)
Yes

Determine whether this compound has pIC50 no lower than 7: O=C1CCC(N2C(=O)c3ccc(N4CCN(C(=O)CCCC(=O)N5CCC(NC(=O)c6n[nH]cc6NC(=O)c6c(Cl)cccc6Cl)CC5)CC4)cc3C2=O)C(=O)N1 (centres undefined)
No

Determine whether this compound has pIC50 no lower than 7: O=C1CCC(N2C(=O)c3ccc(N4CCN(CC(=O)N5CCC(NC(=O)c6n[nH]cc6NC(=O)c6c(Cl)cccc6Cl)CC5)CC4)cc3C2=O)C(=O)N1 (centres undefined)
No

Determine whether this compound has pIC50 no lower than 7: O=C1CCC(N2C(=O)c3ccc(N4CCN(C(=O)CN5CCC(NC(=O)c6n[nH]cc6NC(=O)c6c(Cl)cccc6Cl)CC5)CC4)cc3C2=O)C(=O)N1 (centres undefined)
Yes

Determine whether this compound has pIC50 no lower than 7: O=C1CCC(N2C(=O)c3cccc(NCCCCCCC(=O)N4CCC(NC(=O)c5n[nH]cc5NC(=O)c5c(Cl)cccc5Cl)CC4)c3C2=O)C(=O)N1 (centres undefined)
No

Determine whether this compound has pIC50 no lower than 7: O=C1CCC(Nc2cccc(N3CCN(CC4CCN(CC(=O)N5CCC(NC(=O)c6n[nH]cc6NC(=O)c6c(Cl)cccc6Cl)CC5)CC4)CC3)c2)C(=O)N1 (centres undefined)
Yes

Determine whether this compound has pIC50 no lower than 7: O=C1CCC(N2C(=O)c3ccc(N4CCN(C(=O)CN5CCC(CN6CCC(NC(=O)c7n[nH]cc7NC(=O)c7c(Cl)cccc7Cl)CC6)CC5)CC4)cc3C2=O)C(=O)N1 (centres undefined)
Yes

Determine whether this compound has pIC50 no lower than 7: O=C1CCC(N2C(=O)c3ccc(N4CCN(CC5CCN(CC(=O)N6CCC(NC(=O)c7n[nH]cc7NC(=O)c7c(Cl)cccc7Cl)CC6)CC5)CC4)cc3C2=O)C(=O)N1 (centres undefined)
Yes

Determine whether this compound has pIC50 no lower than 7: O=C(NC1CCNCC1)c1n[nH]cc1NC(=O)c1c(Cl)cccc1Cl
No

Determine whether this compound has pIC50 no lower than 7: O=C1CCC(N2C(=O)c3ccc(N4CCC(OC(=O)CN5CCC(NC(=O)c6n[nH]cc6NC(=O)c6c(Cl)cccc6Cl)CC5)CC4)cc3C2=O)C(=O)N1 (centres undefined)
No

Determine whether this compound has pIC50 no lower than 7: O=C1CCC(N2C(=O)c3ccc(N4CCN(C(=O)CCC(=O)N5CCC(NC(=O)c6n[nH]cc6NC(=O)c6c(Cl)cccc6Cl)CC5)CC4)cc3C2=O)C(=O)N1 (centres undefined)
Yes

Determine whether this compound has pIC50 no lower than 7: O=C1CCC(N2C(=O)c3cccc(NCCCCC(=O)N4CCC(NC(=O)c5n[nH]cc5NC(=O)c5c(Cl)cccc5Cl)CC4)c3C2=O)C(=O)N1 (centres undefined)
No

Determine whether this compound has pIC50 no lower than 7: O=C1CCC(N2C(=O)c3cccc(NCCCCCCN4CCC(NC(=O)c5n[nH]cc5NC(=O)c5c(Cl)cccc5Cl)CC4)c3C2=O)C(=O)N1 (centres undefined)
Yes

Determine whether this compound has pIC50 no lower than 7: O=C1CCC(N2C(=O)c3ccc(N4CCN(CC(=O)N5CCC(CN6CCC(NC(=O)c7n[nH]cc7NC(=O)c7c(Cl)cccc7Cl)CC6)CC5)CC4)cc3C2=O)C(=O)N1 (centres undefined)
Yes
